Molecular target: RELA
Details: ASO; further: test concentration or dose not given here
These antisense oligonucleotides have a phosphorothioate backbone; sugars and methylation of C are not fully specified.
Param label: returns condition met when remaining target (mRNA or protein) (fraction of control) < 0.6, returns condition not met otherwise, including exact equality.

sequence-entry	label
GACGAGCCATTCGCCGGA	condition met
GCTCAGGGATGACGTAAA	condition met
TCACACACTGGATTCCCA	condition not met
CAAAGATGGGATGAGGAA	condition not met
TTCGGTTCACTCGGCAGA	condition not met
GATCTGACTCAGCAGGGC	condition met
TCTGGAAACTGTGGATGC	condition not met
CGTAGTCCCCACGCTGCT	condition met
GGATGCGCTGACTGATAG	condition met
TTGGTGGTATCTGTGCTC	condition met
TCACACAGTAGGAAGATC	condition not met
AGAGCCGCACAGCATTCA	condition met
AGCCTGGTCCCGTGAAAT	condition met
ATGGGTCCCGCACTGTCA	condition met
GCCGGTGAGGAGGGTCCT	condition not met
CTCATAGAAGCCATCCCG	condition not met

----------
Biological target: RAF1
Details: ASO
These antisense oligonucleotides have a phosphorothioate backbone; sugars and methylation of C are not fully specified.
Param label: returns fulfilled when remaining target (mRNA or protein) (fraction of control) < 0.7, returns not fulfilled otherwise, including exact equality.

sequence-entry	label
TGAAGGTGAGCTGGAGCCAT	not fulfilled
ATTCTTAAACCTGAGGGAGC	not fulfilled
TTCTCGCCCGCTCCTCCTCC	fulfilled
GGTGAGGGAGCGGGAGGCGG	not fulfilled
TCCCGCCTGTGACATGCATT	fulfilled
TCAGGGCTGGACTGCCTGCT	fulfilled
CCTGCTGGCTTCTCCTCCTC	not fulfilled
GCTCCATTGATGCAGCTTGA	fulfilled

----------
Target: E2F1
Details: ASO
These antisense oligonucleotides have a phosphorothioate backbone; sugars and methylation of C are not fully specified.
measurement-name: remaining target (mRNA or protein) (fraction of control)

sequence-entry	val
CGAGCAGGGCCTCCAGCGCC	0.9
GGTCCTGGGTCAACCCCTCA	0.62
TGGAGAGGGCCCACCCCACC	0.62
GAGGAGGCCGGAGAAGTCCT	0.75
GAGTCGGCCGCCACCAGCGG	0.27
GCCTTGTGGGACCCCACGAG	0.83
TGGCAGAGTCAGTGGCCCTG	0.94
GAGGCCTCGATAAATAAATA	0.94
GGTATAAATTAAATGTTTCC	0.62
CCGCTGCCTGCAAAGTCCCG	0.92
TTTGATCACCATAACCATCT	0.08
AGGGACCCCTGCCCTTGCTC	0.23
GACCACAGGGTCTGGGCTGG	0.62
GTGACACTATGGTGGCAGAG	0.75
TGTTAGGAAGCAAATCAAAG	0.74
GGACTCATGCACACACATGT	0.16

----------
Biological target: PTPN6
Conditions: ASO
These antisense oligonucleotides have a phosphorothioate backbone; sugars and methylation of C are not fully specified.
List of remaining target (mRNA or protein) (fraction of control) values.
measurement-name: remaining target (mRNA or protein) (fraction of control)

sequence-entry	val
CCACGGGACAGCATCTCTCT	≥ 1
GCCAGGTGAGGAAGAACCGC	≥ 1
CCACCCACGGGACAGCATCT	≥ 1
GCCTGGGCCAGCCTTGGGCT	≥ 1
CAAACTCTCAAACTCCTCCC	0.88
CGCTCACTTCCTCTTGAGGG	0.69

Values were extracted from the OligoGym collection.
